The reported numbers originate from PubChem BioAssay (NCATS).

Experiment: qHTS drug screen for cell cycle checkpoint inhibitors in PARPi-resistant BRCA-mutant ovarian cancer cell lines. (AID 1963452)
Conditions: PEO1/OlaR viability, CellTiter-Glo luminescence, 96 h; hits give low values
Readings of Z-AUC for the listed molecules
Experimental readout: Z-AUC

>>> assay_value("COC1=C2C[C@H](C)C[C@H](OC)[C@H](O)[C@@H](C)/C=C(/C)[C@H](OC(N)=O)[C@@H](OC)/C=C\\C=C(\\C)C(=O)NC(=CC1=O)C2=O")
0.322
>>> assay_value("CNc1nc(-c2ccc3c(N)n[nH]c3c2)cc(N2C[C@@H](C(=O)NC3CCCCC3)CC[C@H]2C)n1")
-1.31
>>> assay_value("Cc1c(-c2c(-c3ccc(F)o3)sc3ncnc(O[C@@H](Cc4ccccc4OCc4ccnn4CC(F)(F)F)C(=O)O)c23)ccc(OCCN2CCN(C)CC2)c1Cl")
0.0867
>>> assay_value("CCO[C@@H]1OC(=O)C[C@@H]1NC(=O)[C@@H]1CCCN2C(=O)CC[C@H](NC(=O)c3nccc4ccccc34)C(=O)N12")
-0.883
>>> assay_value("N=C1CCCN1Cc1[nH]c(=O)[nH]c(=O)c1Cl")
-0.424
>>> assay_value("Cc1[nH]nc2ncc(C(=O)N3CCC[C@H]3c3ccc(Cl)cc3)cc12")
-0.0587
>>> assay_value("Clc1cccc(-c2ccc(-c3nnc(CCCc4ccc5cccnc5n4)o3)cc2)c1")
1.61
>>> assay_value("N#C/C(=C1/Nc2ccccc2S1)c1ccnc(OCc2ccc(CN3CCOCC3)cc2)n1")
0.822
>>> assay_value("Cn1ncc(NC(=O)c2nc(-c3c(F)cccc3F)sc2N)c1N1CC[C@@H](N)[C@H](F)CC1")
0.883
>>> assay_value("CC(C)[C@H]1C(=O)N[C@@H](CCCN=C(N)N)C(=O)NCC(=O)N[C@@H](CC(=O)O)C(=O)N[C@H](Cc2ccccc2)C(=O)N1C")
-1.37
>>> assay_value("O=C(O)C[C@H]1CCc2c1[nH]c1ccc(OCc3ccc(C4CCCC4)c(C(F)(F)F)c3)cc21")
1.56
>>> assay_value("Nc1nc(N)c2nc(-c3cccc(Cl)c3)c(N)nc2n1")
-0.747
>>> assay_value("COc1cc2c(Oc3ccc4[nH]c(C)cc4c3F)ccnc2cc1OCC1(N)CC1")
0.184
>>> assay_value("CC(C)n1ncnc1-c1cn2c(n1)-c1ccc(O[C@@H](C)C(N)=O)cc1OCC2")
-1.61
>>> assay_value("CN1C(=O)[C@@H](NC(=O)c2n[nH]c(Cc3ccccc3)n2)COc2ccccc21")
-0.646
>>> assay_value("CC(C)(NS(=O)(=O)c1ccc2c(Cl)cnc(N=C(N)N)c2c1)C(=O)O")
-0.917
>>> assay_value("CO[C@H]1/C=C/O[C@@]2(C)Oc3c(C)c(O)c4c(O)c(c(/C=N\\N5CCN(C6CCCC6)CC5)c(O)c4c3C2=O)NC(=O)/C(C)=C\\C=C\\[C@H](C)[C@H](O)[C@@H](C)[C@@H](O)[C@@H](C)[C@H](OC(C)=O)[C@@H]1C")
-0.749
>>> assay_value("CC(C)(O)c1coc(S(=O)(=O)NC(=O)Nc2c3c(cc4c2CCC4)CCC3)c1")
-0.755
>>> assay_value("COc1ccc(CNC(=O)c2cc(-c3cncc(Cl)c3)cnc2-c2ccccn2)nc1OC")
0.765
>>> assay_value("COc1cc(C)[nH]c(=O)c1CN1CCc2c(Cl)cc([C@H](OC)C3COC3)c(Cl)c2C1=O")
1.05

* * *

Assay: qHTS Assay for Lipid Storage Modulators (AID 1519); also: % is scaled to controls: 0 for no effect and ±100 for the full control effect
Details: Drosophila S3 cells, BODIPY lipid droplet/cell ratio, laser cytometry; at 57.5 µM (top of the series); cells loaded with oleic acid
Results filed as inconclusive are left out.
Readings of activity change, negative = inhibition for the listed compounds
Experimental readout: activity change, negative = inhibition (%)

>>> assay_value("COc1ccccc1-c1cc(NCc2cccc(C)c2)ncn1")
-23.2
>>> assay_value("CN(C)Cc1ccccc1-c1nc(NC2CCNCC2)c2ccccc2n1")
2.42
>>> assay_value("COCCn1c(=O)c(C)nc2cnc(Oc3ccccc3)nc21")
4.7
>>> assay_value("O=c1c(-c2ccc(F)cc2)nc2cnc(N3CCOCC3)nc2n1C[C@H]1CCCO1")
-21.9
>>> assay_value("Cc1cccc(CNc2ccnc(-c3ccoc3)n2)c1")
6.91
>>> assay_value("COCC(=O)N1CCC2(CC1)CCN(c1ccccn1)CC2")
2.07
>>> assay_value("COCC(=O)N1CCC2(CC1)CN(C(=O)Nc1cccc(C#N)c1)C2")
1.93
>>> assay_value("Cn1cccc1C(=O)N1CCC[C@@]2(CCN(Cc3ccccc3)C2)C1")
3.81
>>> assay_value("Cc1ccccc1-c1nccc(NCCN2CCOCC2)n1")
3.61
>>> assay_value("CCNc1ncc2nc(C)c(=O)n(CCC#N)c2n1")
3.22
>>> assay_value("COCCn1c(=O)c(-c2ccccc2)nc2cnc(OC)nc21")
5.61
>>> assay_value("CCNc1ncc2nc(-c3ccccc3)c(=O)n(C[C@H]3CCCO3)c2n1")
-15.5
>>> assay_value("COc1ccc(Oc2ncc3ncc(=O)n(C[C@H]4CCCO4)c3n2)cc1")
-4.96
>>> assay_value("O=C(Oc1ccccc1)N1CCC2(CC1)CCN(c1ccccc1)CC2")
-1.08
>>> assay_value("CN(C)c1ncc2nc(-c3cc(F)cc(F)c3)c(=O)n(C[C@H]3CCCO3)c2n1")
7.12
>>> assay_value("Cc1nc2cnc(N3CCOCC3)nc2n(C)c1=O")
4.73
>>> assay_value("O=c1c(-c2ccccc2)nc2cnc(Oc3ccccc3)nc2n1Cc1cccs1")
-10.3
>>> assay_value("CC(=O)N1CCC[C@@]2(CCN(c3ccncc3)C2)C1")
2.25
>>> assay_value("FC(F)(F)c1ccccc1-c1nc(N2CCOCC2)c2ccccc2n1")
6.74
>>> assay_value("O=C(Nc1ccccc1)Nc1ccccc1")
11.8
>>> assay_value("COc1ccc(-c2nc3cnc(Nc4cccc(OC)c4)nc3n(C[C@H]3CCCO3)c2=O)cc1")
-4.84
>>> assay_value("CNc1ccnc(-c2ccccc2OC)n1")
6.44
>>> assay_value("Cc1noc(C)c1-c1cc(NCc2cccnc2)ncn1")
2.28
>>> assay_value("COc1ccc(-n2c(=O)c(-c3ccc(Cl)cc3)nc3cnc(N4CCNCC4)nc32)cc1")
5.55
>>> assay_value("O=C(c1csnn1)N1CCC2(CC1)CCN(c1ccccc1)CC2")
4.25
>>> assay_value("CS(=O)(=O)N1CCC2(CC1)CN(Cc1nccs1)C2")
3.27
>>> assay_value("CS(=O)(=O)N1CCC[C@@]2(CCN(c3ccccn3)C2)C1")
2.29
>>> assay_value("COc1cccc(-c2cncnc2NCc2ccccc2)c1")
9.98
>>> assay_value("CN1CCN(c2ncc3nc(-c4cccs4)c(=O)n(CCC#N)c3n2)CC1")
0.733
>>> assay_value("CC(C)C1NC(=O)[C@H](CCCCN)NC(=O)[C@@H](Cc2c[nH]c3ccccc23)NC(=O)[C@H](Cc2ccc(O)cc2)NC(=O)[C@H](C)N(C)C(=O)[C@H](Cc2ccccc2)NC1=O (stereo partly drawn)")
0.502
>>> assay_value("c1nc(N2CCNCC2)c2cc(-c3ccc4c(c3)OCO4)ccc2n1")
13.1
>>> assay_value("O=C(c1cccc(F)c1)N1CCC2(CCN(Cc3cc(C(F)(F)F)cc(C(F)(F)F)c3)CC2)CC1")
1.43
>>> assay_value("COCCn1c(=O)c(C)nc2cnc(N3CCNCC3)nc21")
1.17

* * *

Readings of activity change, negative = inhibition for the listed molecules
Test: qHTS Assay for Lipid Storage Modulators (AID 1519); also: % is scaled to controls: 0 for no effect and ±100 for the full control effect
Details: Drosophila S3 cells, BODIPY lipid droplet/cell ratio, laser cytometry; at 57.5 µM (top of the series); cells loaded with oleic acid
Inconclusive results are not listed.
Experimental readout: activity change, negative = inhibition (%)

>>> assay_value("COCC(=O)N1CCC2(CC1)CN(Cc1cc(C(F)(F)F)cc(C(F)(F)F)c1)C2")
-7.21
>>> assay_value("O=C(Nc1ccccc1)N1CC2(CCN(C(=O)c3cccc(F)c3)CC2)C1")
5.53
>>> assay_value("CC(=O)N1CCC2(CC1)CCN(C(=O)Nc1cccc(F)c1)CC2")
3
>>> assay_value("COCCNc1ncnc2ccc(-c3cccc(OC)c3)cc12")
-4.77
>>> assay_value("O=C(c1cnccn1)N1CCC2(CC1)CN(c1ccncc1)C2")
-0.9
>>> assay_value("Cc1cnc(CNc2ncncc2-c2ccc(C(=O)N(C)C)cc2)cn1")
10.8
>>> assay_value("CN(C)c1ccc(-c2cncnc2NCc2cccs2)cc1")
7.98
>>> assay_value("O=C(Oc1ccccc1)N1CCC2(CC1)CN(c1ccccc1)C2")
1.33

* * *

Target: Cytochrome P450 1A2 (Homo sapiens)
Test: p450-cyp1a2 (AID 410)
Conditions: recombinant CYP1A2, luciferin-ME demethylation, luminescence; series mostly up to 57 µM
Description: The P450 gene superfamily is involved in metabolism and the clearance of xenobiotics. This assay used human CYP1A2 to measure the demethylation of luciferin 6' methyl ether (Luciferin-ME; Promega-Glo) to luciferin. The luciferin is then measured by luminescence after the addition of a luciferase detection regeant. Luciferin-ME concentration in the assay was equal to its Km for CYP1A2. NCGC Assay Protocol Summary: […]
Records with an inconclusive call do not appear. The source made the active and inactive calls. Calls come from the whole dose curve.
Possible outcomes: active, inactive

>>> label_value("COc1ccc(C(=O)N2CCC3(CC2)CN(c2ccncc2)C3)cc1")
"inactive"
>>> label_value("c1cncc(CNc2ncncc2-c2ccc3c(c2)OCO3)c1")
"active"
>>> label_value("CN1CCN(c2ncnc3ccc(-c4ccc5c(c4)OCO5)cc23)CC1")
"active"
>>> label_value("N#Cc1cccc(-c2cc(NCc3cccs3)ncn2)c1")
"active"
>>> label_value("CN(C)c1ncc2nc(-c3cccc(C#N)c3)c(=O)n(CCC#N)c2n1")
"inactive"
>>> label_value("CC(=O)NCCNc1ncncc1-c1ccc(N(C)C)cc1")
"active"
>>> label_value("O=c1c(-c2cccs2)nc2cnc(N3CCOCC3)nc2n1Cc1ccc(F)cc1")
"active"
>>> label_value("Cc1noc(C)c1-c1cncnc1N(C)Cc1ccco1")
"inactive"
>>> label_value("CN(C)c1ncnc2ccc(-c3ccoc3)cc12")
"active"
>>> label_value("CN(Cc1ccco1)c1ncnc2ccc(-c3ccccc3C(F)(F)F)cc12")
"active"
>>> label_value("O=c1c(-c2cccs2)nc2cnc(N3CCOCC3)nc2n1Cc1cccs1")
"active"
>>> label_value("COCCn1c(=O)c(C)nc2cnc(Oc3ccc(OC)cc3)nc21")
"active"
>>> label_value("CC(=O)N1CCC2(CCCN(C(=O)Nc3cccc(F)c3)C2)CC1")
"inactive"
>>> label_value("O=C(Nc1cccc(F)c1)N1CC2(CCN(S(=O)(=O)c3ccccc3)CC2)C1")
"inactive"
>>> label_value("N#Cc1cccc(NC(=O)N2CCC3(CC2)CCN(C(=O)c2csnn2)CC3)c1")
"inactive"
>>> label_value("COc1cccc(-c2cncnc2-n2ccnc2)c1")
"active"
>>> label_value("CC(C)NC(=O)N1CC2(CCN(C(=O)c3ccncc3)CC2)C1")
"inactive"
>>> label_value("COc1ccccc1-c1nccc(NCc2cnc(C)cn2)n1")
"active"
>>> label_value("O=C(c1csnn1)N1CCC[C@@]2(CCN(c3ccccn3)C2)C1")
"inactive"
>>> label_value("COc1ccc(-n2c(=O)c(-c3cccs3)nc3cnc(OC)nc32)cc1")
"active"
>>> label_value("N#Cc1ccc(CN2CCCC3(CCN(C(=O)c4cccc(F)c4)CC3)C2)cc1")
"inactive"
